# Test system: MDCKII cells
# experimentDescription: Apparent permeability in MDCKII cells
# Type: in vitro ADME
# conditionSet: 1 μM, t=3 hr, average of A to B and B to A Papp
Record form. Attribute: MDCK Permeability (cm × 10−6/sec). Fill in for each entry.
Lab book: enter the figure in cm × 10−6/sec, no units written.

Problem: Using the record for CCCC1O[C@@H]2C[C@H]3[C@@H]4CCC5=CC(=O)C=C[C@]5(C)[C@H]4[C@@H](O)C[C@]3(C)[C@]2(C(=O)CO)O1 (stereo partly drawn) [Budesonide, reference compound] , report its MDCK Permeability (cm × 10−6/sec).
Solution: 31.6

Problem: Using the record for C[C@@H]1C[C@H]2[C@@H]3C[C@H](F)C4=CC(=O)C=C[C@]4(C)[C@@]3(F)[C@@H](O)C[C@]2(C)[C@@]1(O)C(=O)SCCCCCCP(=O)(O)O , report its MDCK Permeability (cm × 10−6/sec).
Solution: 1.9

Problem: Using the record for CCCC1O[C@@H]2C[C@H]3[C@@H]4CCC5=Cc6c(cnn6-c6ccc(OCCCCP(=O)(O)O)cc6)C[C@]5(C)[C@H]4[C@@H](O)C[C@]3(C)[C@]2(C(=O)CO)O1 (stereo partly drawn) , report its MDCK Permeability (cm × 10−6/sec).
Solution: 1.9

Problem: Using the record for CCC(=O)O[C@]1(C(=O)SCCCCCCCCCCP(=O)(O)O)[C@H](C)C[C@H]2[C@@H]3C[C@H](F)C4=CC(=O)C=C[C@]4(C)[C@@]3(F)[C@@H](O)C[C@@]21C , report its MDCK Permeability (cm × 10−6/sec).
Solution: 1.04

Problem: Using the record for CCC(=O)O[C@]1(C(=O)SCF)[C@H](C)C[C@H]2[C@@H]3C[C@H](F)C4=CC(=O)C=C[C@]4(C)[C@@]3(F)[C@@H](O)C[C@@]21C [Fluticasone Propionate, reference compound] , report its MDCK Permeability (cm × 10−6/sec).
Solution: 21.5

Problem: Using the record for CCC(=O)O[C@]1(C(=O)SCCCCP(=O)(O)O)[C@H](C)C[C@H]2[C@@H]3C[C@H](F)C4=CC(=O)C=C[C@]4(C)[C@@]3(F)[C@@H](O)C[C@@]21C , report its MDCK Permeability (cm × 10−6/sec).
Solution: 1.72

Problem: Using the record for CCC(=O)O[C@]1(C(=O)SCCCCCCP(=O)(O)O)[C@H](C)C[C@H]2[C@@H]3C[C@H](F)C4=CC(=O)C=C[C@]4(C)[C@@]3(F)[C@@H](O)C[C@@]21C , report its MDCK Permeability (cm × 10−6/sec).
Solution: 2

Problem: Using the record for CCCC1O[C@@H]2C[C@H]3[C@@H]4CCC5=Cc6c(cnn6-c6ccc(OCCCCCCP(=O)(O)O)cc6)C[C@]5(C)[C@H]4[C@@H](O)C[C@]3(C)[C@]2(C(=O)CO)O1 (stereo partly drawn) , report its MDCK Permeability (cm × 10−6/sec).
Solution: 4.1

Problem: Using the record for CCCC1O[C@@H]2C[C@H]3[C@@H]4CCC5=Cc6c(cnn6-c6cccc(OCCCCP(=O)(O)O)c6)C[C@]5(C)[C@H]4[C@@H](O)C[C@]3(C)[C@]2(C(=O)CO)O1 (stereo partly drawn) , report its MDCK Permeability (cm × 10−6/sec).
Solution: 1.6

Problem: Using the record for C[C@@H]1C[C@H]2[C@@H]3C[C@H](F)C4=CC(=O)C=C[C@]4(C)[C@@]3(F)[C@@H](O)C[C@]2(C)[C@@]1(O)C(=O)SCCCCCCCCCCP(=O)(O)O , report its MDCK Permeability (cm × 10−6/sec).
Solution: 2.8

Problem: Using the record for C[C@@H]1C[C@H]2[C@@H]3C[C@H](F)C4=CC(=O)C=C[C@]4(C)[C@@]3(F)[C@@H](O)C[C@]2(C)[C@@]1(O)C(=O)SCCCCP(=O)(O)O , report its MDCK Permeability (cm × 10−6/sec).
Solution: 1.84

====

# tgt: glucocorticoid receptor (Homo sapiens (Human))
measuredQuantity: IC50 (nM)
Lab book: enter the figure in nM, no units written.

Problem: Using the record for CCC(=O)O[C@]1(C(=O)SCCCCCCCCCCP(=O)(O)O)[C@H](C)C[C@H]2[C@@H]3C[C@H](F)C4=CC(=O)C=C[C@]4(C)[C@@]3(F)[C@@H](O)C[C@@]21C , report its IC50.
Solution: 0.44

Problem: Using the record for CCCC1O[C@@H]2C[C@H]3[C@@H]4CCC5=Cc6c(cnn6-c6cccc(OCCCCCCCCCP(=O)(O)O)c6)C[C@]5(C)[C@H]4[C@@H](O)C[C@]3(C)[C@]2(C(=O)CO)O1 (some centres unmarked) , report its IC50.
Solution: 24.2

Problem: Using the record for CCC(=O)O[C@]1(C(=O)SCCCCCCP(=O)(O)O)[C@H](C)C[C@H]2[C@@H]3C[C@H](F)C4=CC(=O)C=C[C@]4(C)[C@@]3(F)[C@@H](O)C[C@@]21C , report its IC50.
Solution: 0.45

Problem: Using the record for C[C@@H]1C[C@H]2[C@@H]3C[C@H](F)C4=CC(=O)C=C[C@]4(C)[C@@]3(F)[C@@H](O)C[C@]2(C)[C@@]1(OC(=O)CCCCCCCCP(=O)(O)O)C(=O)SCF , report its IC50.
Solution: 0.1

Problem: Using the record for C[C@@H]1C[C@H]2[C@@H]3C[C@H](F)C4=CC(=O)C=C[C@]4(C)[C@@]3(F)[C@@H](O)C[C@]2(C)[C@@]1(O)C(=O)SCCCP(=O)(O)O , report its IC50.
Solution: 1220

====

Record form. Attribute: GILZ Max. Fill in for each entry.
# Test system: GILZ gene
# experimentDescription: GILZ gene assay (qPCR, HUT78 / 786-O cells)
# Format: cell-based
# conditionSet: at 10 uM

Problem: Using the record for C[C@@H]1C[C@H]2[C@@H]3C[C@H](F)C4=CC(=O)C=C[C@]4(C)[C@@]3(F)[C@@H](O)C[C@]2(C)[C@@]1(O)C(=O)SCCOCCOCCP(=O)(O)O , report its GILZ Max.
Solution: 14.5%

Problem: Using the record for C[C@@H]1C[C@H]2[C@@H]3C[C@H](F)C4=CC(=O)C=C[C@]4(C)[C@@]3(F)[C@@H](O)C[C@]2(C)[C@@]1(O)C(=O)SCCCP(=O)(O)O , report its GILZ Max.
Solution: 24% (at

Problem: Using the record for CCC(=O)O[C@]1(C(=O)SCCCP(=O)(O)O)[C@H](C)C[C@H]2[C@@H]3C[C@H](F)C4=CC(=O)C=C[C@]4(C)[C@@]3(F)[C@@H](O)C[C@@]21C , report its GILZ Max.
Solution: 15% (at

Problem: Using the record for C[C@@H]1C[C@H]2[C@@H]3C[C@H](F)C4=CC(=O)C=C[C@]4(C)[C@@]3(F)[C@@H](O)C[C@]2(C)[C@@]1(OC(=O)CCCCCCCCP(=O)(O)O)C(=O)SCF , report its GILZ Max.
Solution: 65% (at

Problem: Using the record for CCCC1O[C@@H]2C[C@H]3[C@@H]4CCC5=Cc6c(cnn6-c6ccc(OCCCCCCCCCP(=O)(O)O)cc6)C[C@]5(C)[C@H]4[C@@H](O)C[C@]3(C)[C@]2(C(=O)CO)O1 (stereo partly shown) , report its GILZ Max.
Solution: 86% (at

Problem: Using the record for C[C@@H]1C[C@H]2[C@@H]3C[C@H](F)C4=CC(=O)C=C[C@]4(C)[C@@]3(F)[C@@H](O)C[C@]2(C)[C@@]1(O)C(=O)SCCCCCCP(=O)(O)O , report its GILZ Max.
Solution: 17.3%

Problem: Using the record for C[C@@H]1C[C@H]2[C@@H]3C[C@H](F)C4=CC(=O)C=C[C@]4(C)[C@@]3(F)[C@@H](O)C[C@]2(C)[C@@]1(OC(=O)CCCCCP(=O)(O)O)C(=O)SCF , report its GILZ Max.
Solution: 88% (at

====

Record form. Attribute: pIC50. Fill in for each entry.
# tgt: glucocorticoid receptor (Homo sapiens (Human), UniProt P04150)
# Sequence (P04150 whole entry): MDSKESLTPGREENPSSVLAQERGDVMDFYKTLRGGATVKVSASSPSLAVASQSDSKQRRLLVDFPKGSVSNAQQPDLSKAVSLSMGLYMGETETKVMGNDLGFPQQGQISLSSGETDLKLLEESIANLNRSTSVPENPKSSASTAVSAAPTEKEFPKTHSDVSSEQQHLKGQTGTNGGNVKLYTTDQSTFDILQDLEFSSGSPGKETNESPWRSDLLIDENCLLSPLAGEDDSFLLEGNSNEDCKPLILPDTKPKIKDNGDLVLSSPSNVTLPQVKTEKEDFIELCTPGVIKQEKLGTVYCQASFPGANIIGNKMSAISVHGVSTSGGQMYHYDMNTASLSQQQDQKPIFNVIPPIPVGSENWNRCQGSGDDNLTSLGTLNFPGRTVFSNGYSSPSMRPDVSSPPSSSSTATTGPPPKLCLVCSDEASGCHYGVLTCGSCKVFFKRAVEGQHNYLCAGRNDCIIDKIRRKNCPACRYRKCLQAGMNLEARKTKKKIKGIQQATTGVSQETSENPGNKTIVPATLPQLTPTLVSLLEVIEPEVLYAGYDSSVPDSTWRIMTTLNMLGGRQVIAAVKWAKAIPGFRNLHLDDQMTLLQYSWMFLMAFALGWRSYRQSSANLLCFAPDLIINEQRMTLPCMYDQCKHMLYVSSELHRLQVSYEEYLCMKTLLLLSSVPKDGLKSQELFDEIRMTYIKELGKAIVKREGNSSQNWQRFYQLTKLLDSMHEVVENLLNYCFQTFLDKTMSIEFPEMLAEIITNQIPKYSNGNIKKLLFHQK
# experimentDescription: PolarScreen Glucocorticoid Receptor Competitor Assay (GR binding)
# conditionSet: fluormone GS red, GR full length protein; read-out: GR Bind IC50
Note on units: pIC50 is unitless, being -log10 of a concentration expressed in mol/L.

Problem: Using the record for CCCC1O[C@@H]2C[C@H]3[C@@H]4CCC5=Cc6c(cnn6-c6ccc(OCCCCCCP(=O)(O)O)cc6)C[C@]5(C)[C@H]4[C@@H](O)C[C@]3(C)[C@]2(C(=O)CO)O1 (stereo partly drawn) [Compound 31] , report its pIC50.
Solution: 8.41

Problem: Using the record for CCC(=O)O[C@]1(C(=O)SCCP(=O)(O)O)[C@H](C)C[C@H]2[C@@H]3C[C@H](F)C4=CC(=O)C=C[C@]4(C)[C@@]3(F)[C@@H](O)C[C@@]21C [Compound 12] , report its pIC50.
Solution: 6.79

Problem: Using the record for CCCC1O[C@@H]2C[C@H]3[C@@H]4CCC5=Cc6c(cnn6-c6ccc(OCCCCCCCCCP(=O)(O)O)cc6)C[C@]5(C)[C@H]4[C@@H](O)C[C@]3(C)[C@]2(C(=O)CO)O1 (stereo partly drawn) [Compound 32] , report its pIC50.
Solution: 6.94
